Entry source: the supplement of paper PMC9694430

tested on: LOC_OS03G50450-cb001; assay: thermal shift delta Tm vs DMSO control; higher = stronger stabilization (binding); conditions: 12.5 µM; protein concentration 2 µM;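 note: purified Escherichia coli-expressed rice kinase domain construct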
thermal shift delta Tm reference
experimentalEndpoint: thermal shift delta Tm (°C)

molecule=CS(=O)(=O)N1CCc2c(-c3cnc(N)nc3)nc(N3CCOCC3)nc21 readoutvalue=0.77
molecule=COc1cc2ncnc(Nc3ccc(Oc4ccccc4)cc3C)c2cc1OC readoutvalue=0.77
molecule=CC(C)(O)CNc1ncc(-c2ccnc(Nc3ccnc(Cl)c3)n2)c(CC2CC2)n1 readoutvalue=0.3
molecule="CO[C@H]1C[C@@H]2CC[C@@H](C)[C@@](O)(O2)C(=O)C(=O)N2CCCC[C@H]2C(=O)O[C@H]([C@H](C)C[C@@H]2CC[C@@H](OCCO)[C@H](OC)C2)CC(=O)[C@H](C)/C=C(\\C)[C@@H](O)[C@@H](OC)C(=O)[C@H](C)C[C@H](C)/C=C/C=C/C=C/1C [Everolimus (RAD001)]" readoutvalue=-0.1
molecule=C=CC(=O)Nc1cc(Nc2nccc(-c3c[nH]c4ccccc34)n2)c(OC)cc1N(C)CCN(C)C readoutvalue=0.87

----------
tested on: LOC_OS01G21960-cb002; test: thermal shift delta Tm vs DMSO control; higher = stronger stabilization (binding); settings: 12.5 µM; protein concentration 2 µM
Threshold check on thermal shift delta Tm: at or above 0.5 °C gives yes (1), strictly below gives no (0).

molecule="CC(C)c1c2cc(-c3ccnc(NC4CCC(NC5CCOCC5)CC4)n3)ccc2nn1C (centres undefined)" qualitativelabel="yes (1)"
molecule=Cc1[nH]c(/C=C2\C(=O)Nc3ccc(S(=O)(=O)Cc4c(Cl)cccc4Cl)cc32)c(C)c1C(=O)N1CCC[C@@H]1CN1CCCC1 qualitativelabel="no (0)"
molecule=O=c1sn(-c2cccc3ccccc23)c(=O)n1Cc1ccccc1 qualitativelabel="no (0)"
molecule=OCCn1cc(-c2ccc3c(c2)CC/C3=N\O)c(-c2ccncc2)n1 qualitativelabel="no (0)"
molecule=CCN(CC)CCNC(=O)c1c(C)[nH]c(/C=C2\C(=O)Nc3ccc(-c4csc(-c5ccccc5)n4)cc32)c1C qualitativelabel="yes (1)"
molecule=NC(=O)c1cnc2[nH]ccc2c1N[C@@H]1[C@@H]2CC3C[C@H]1C[C@@](O)(C3)C2 qualitativelabel="yes (1)"
molecule=Nc1nc2cc(-c3ccc4ncc(C(=O)N5CCOCC5)n4c3)ccc2o1 qualitativelabel="yes (1)"
molecule=COc1cc(Nc2ncc3c(n2)-c2ccc(Cl)cc2C(c2c(F)cccc2OC)=NC3)ccc1C(=O)O qualitativelabel="no (0)"
molecule=C[C@@H](N)[C@H]1CC[C@H](C(=O)Nc2ccncc2)CC1 qualitativelabel="yes (1)"
molecule=CN(C)Cc1cccc(N=C(c2ccccc2)c2c(O)[nH]c3cc(C(=O)N(C)C)ccc23)c1 qualitativelabel="yes (1)"
molecule=C#Cc1cccc(Nc2ncnc3cc4c(cc23)OCCOCCOCCO4)c1 qualitativelabel="yes (1)"
molecule=COC1(c2sc3c(N4CCOCC4)nc(-c4cnc(N)nc4)nc3c2C)COC1 qualitativelabel="no (0)"
molecule=C=CC(=O)Nc1cccc(C)c1Nc1ncc2cc(-c3c(Cl)c(OC)cc(OC)c3Cl)ccc2n1 qualitativelabel="yes (1)"
molecule=Nc1nccc(Oc2ccc3c(C(=O)Nc4cccc(C(F)(F)F)c4)cccc3c2)n1 qualitativelabel="yes (1)"
molecule=CN1CCN(c2cccc(Nc3nc4c(-c5ccc(S(C)(=O)=O)cc5)cccn4n3)c2)CC1 qualitativelabel="yes (1)"
molecule=C#Cc1cccc(Nc2ncnc3cc(OC)c(OCCCCCCC(=O)NO)cc23)c1 qualitativelabel="yes (1)"
molecule=Cc1cc(Nc2cc(CN3CCOCC3)c3nc(C)c(Cc4ccc(Cl)cc4F)n3n2)n[nH]1 qualitativelabel="yes (1)"
molecule="O=C(NC(NC(=S)Nc1ccc(F)c([N+](=O)[O-])c1)C(Cl)(Cl)Cl)C(c1ccccc1)c1ccccc1 (centres undefined)" qualitativelabel="yes (1)"
molecule=Cc1cc(CS(=O)(=O)c2ccccc2)cc(OCc2ccc(CN3CCC[C@@H]3CO)cc2)c1 qualitativelabel="no (0)"
molecule=CC[C@@H](N)CNc1ccnc(-c2cc(-c3cnn(C)c3)ccc2O)n1 qualitativelabel="yes (1)"
molecule="COc1ccc(S(=O)(=O)N(CCO)c2ccccc2CN(C)C/C=C/c2ccc(Cl)cc2)cc1 [KN-93 Phosphate]" qualitativelabel="yes (1)"
molecule=O=C(Nc1cccnc1)c1cc(-c2ccnc(F)c2)ccc1OCc1ccccc1 qualitativelabel="no (0)"
molecule=NC[C@@](O)(c1ccc(Cl)cc1)c1ccc(-c2cn[nH]c2)cc1 qualitativelabel="yes (1)"
molecule=Cc1cc(Nc2cc(N3CCN(C)CC3)nc(Sc3ccc(NC(=O)C4CC4)cc3)n2)n[nH]1 qualitativelabel="yes (1)"
molecule=Cc1cc(Nc2ncc(Cl)c(Nc3ccccc3S(=O)(=O)C(C)C)n2)c(OC(C)C)cc1C1CCNCC1 qualitativelabel="no (0)"
molecule=CCc1cncnc1N1CCN(Cc2nc3ccc(C(F)(F)F)cc3[nH]2)CC1 qualitativelabel="yes (1)"
molecule=Cc1ccc(-n2nc(C(C)(C)C)cc2NC(=O)Nc2ccc(OCCN3CCOCC3)c3ccccc23)cc1 qualitativelabel="no (0)"
molecule=Oc1cc(CNC(=S)/C=C/c2cc(O)c(O)c(Br)c2)cc(O)c1O qualitativelabel="yes (1)"
molecule=COc1cc2ccc(=O)oc2cc1O qualitativelabel="no (0)"
molecule=CNC(=O)CN1CCC(Oc2cc3c(Nc4cccc(Cl)c4F)ncnc3cc2OC)CC1 qualitativelabel="no (0)"
molecule=CC[C@@H]1C(=O)N(C)c2cnc(Nc3ccc(C(=O)N[C@H]4CC[C@H](N5CCN(CC6CC6)CC5)CC4)cc3OC)nc2N1C(C)C qualitativelabel="no (0)"
molecule="COc1cc(CCc2cc(NC(=O)c3ccc(N4CC(C)NC(C)C4)cc3)n[nH]2)cc(OC)c1 (centres undefined)" qualitativelabel="no (0)"
molecule=CC(C)Oc1ccc(-c2nn([C@@H](C)c3oc4ccc(F)cc4c(=O)c3-c3cccc(F)c3)c3ncnc(N)c23)cc1F qualitativelabel="yes (1)"

----------
test system: LOC_OS02G17970-cb001; test: thermal shift delta Tm vs DMSO control; higher = stronger stabilization (binding); conditions: 12.5 µM; protein concentration 2 µM
Structures can show the parent of a compound that is named as a salt.
# thermal shift delta Tm annotations
experimentalEndpoint: thermal shift delta Tm (°C)

compound=COc1ccc([C@@H]2OC[C@H]3[C@@H]2CO[C@@H]3c2ccc(O[C@@H]3O[C@H](CO)[C@@H](O)[C@H](O)[C@H]3O)c(OC)c2)cc1OC experimentalsystem=LOC_OS02G17970-cb001 readoutvalue=-0.6
compound="COc1cc(F)c(F)c(Nc2ccc(I)cc2F)c1NS(=O)(=O)C1(C[C@H](O)CO)CC1 [Refametinib (RDEA119, Bay 86-9766)]" experimentalsystem=LOC_OS02G17970-cb001 readoutvalue=1.26
compound=Cn1ncc(Cl)c1-c1cc(C(=O)N[C@H](CN)Cc2cccc(F)c2)sc1Cl experimentalsystem=LOC_OS02G17970-cb001 readoutvalue=0.56
compound=N#Cc1ccc2[nH]c(O)c(-c3ccc(CN4CCOCC4)cn3)c2c1 experimentalsystem=LOC_OS02G17970-cb001 readoutvalue=0.51
compound=CC[C@@H]1C(=O)N(C)c2cnc(Nc3ccc(C(=O)NC4CCN(C)CC4)cc3OC)nc2N1C1CCCC1 experimentalsystem=LOC_OS02G17970-cb001 readoutvalue=0.02
compound=COc1cc(Nc2ncc(F)c(Nc3ccc4c(n3)NC(=O)C(C)(C)O4)n2)cc(OC)c1OC experimentalsystem=LOC_OS02G17970-cb001 readoutvalue=0.45
compound=COc1ccc(-c2cc3c(C)nc(N)nc3n([C@H]3CC[C@H](OCCO)CC3)c2=O)cn1 experimentalsystem=LOC_OS02G17970-cb001 readoutvalue=0.63
compound="CCN(CC)CCCC(C)Nc1ccnc2cc(Cl)ccc12 (centres undefined) [Chloroquine Phosphate]" experimentalsystem=LOC_OS02G17970-cb001 readoutvalue=-0.06
compound=N#CC[C@H](C1CCCC1)n1cc(-c2ncnc3[nH]ccc23)cn1 experimentalsystem=LOC_OS02G17970-cb001 readoutvalue=0.47
compound=COCCNCc1ccc(-c2cc3nccc(Oc4ccc(NC(=O)C5(C(=O)Nc6ccc(F)cc6)CC5)cc4F)c3s2)nc1 experimentalsystem=LOC_OS02G17970-cb001 readoutvalue=1.18
compound=C#Cc1cccc(Nc2ncnc3cc(OCCOC)c(OCCO)cc23)c1 experimentalsystem=LOC_OS02G17970-cb001 readoutvalue=-0.01
compound="C[C@H]1CNCCCN1S(=O)(=O)c1cccc2cncc(F)c12 [Ripasudil (K-115) hydrochloride dihydrate]" experimentalsystem=LOC_OS02G17970-cb001 readoutvalue=1.75
compound=COc1cc2ncnc(Nc3cccc(Cl)c3)c2cc1OC experimentalsystem=LOC_OS02G17970-cb001 readoutvalue=1.37
compound=CC(C)=CC[C@@H](O)C1=CC(=O)c2c(O)ccc(O)c2C1=O experimentalsystem=LOC_OS02G17970-cb001 readoutvalue=3.84
compound=CC(C)n1ncnc1-c1cn2c(n1)-c1ccc(O[C@@H](C)C(N)=O)cc1OCC2 experimentalsystem=LOC_OS02G17970-cb001 readoutvalue=1.55
compound=Cn1cc(-c2ccc3nnc(C(F)(F)c4ccc5ncccc5c4)n3n2)cn1 experimentalsystem=LOC_OS02G17970-cb001 readoutvalue=0.51
compound="C=CC(=O)N1CCC(Oc2cc3c(Nc4ccc(Cl)c(Cl)c4F)ncnc3cc2OC)CC1 [Poziotinib (HM781-36B)]" experimentalsystem=LOC_OS02G17970-cb001 readoutvalue=0.35
compound=Cc1ccc(S(=O)(=O)/C=C/C#N)cc1 experimentalsystem=LOC_OS02G17970-cb001 readoutvalue=0.99
compound=Cn1c(=O)c(F)c(Nc2ccc(I)cc2F)c2c(=O)n(C[C@@H](O)CO)cnc21 experimentalsystem=LOC_OS02G17970-cb001 readoutvalue=1.05
compound=CC(C)NC(=O)COc1cccc(-c2nc(Nc3ccc4[nH]ncc4c3)c3ccccc3n2)c1 experimentalsystem=LOC_OS02G17970-cb001 readoutvalue=1.76
compound=C=CC(=O)Nc1cccc(Nc2nc(Nc3ccc(NC4CN(CCF)C4)cc3OC)ncc2C(F)(F)F)c1 experimentalsystem=LOC_OS02G17970-cb001 readoutvalue=0.41
compound=O=c1c(-c2ccc(O)cc2)coc2cc(O)cc(O)c12 experimentalsystem=LOC_OS02G17970-cb001 readoutvalue=1.58
compound=CNC(=O)c1cc(Oc2ccc(NC(=O)Nc3ccc(Cl)c(C(F)(F)F)c3)c(F)c2)ccn1 experimentalsystem=LOC_OS02G17970-cb001 readoutvalue=0.55
compound="Cc1ccc(NC(=O)c2ccc(CN3CCN(C)CC3)cc2)cc1Nc1nccc(-c2cccnc2)n1 [Imatinib (STI571)]" experimentalsystem=LOC_OS02G17970-cb001 readoutvalue=0.21
compound="O=c1cc(-c2ccccc2)oc2c(O)c(O)ccc12 [7,8-Dihydroxyflavone]" experimentalsystem=LOC_OS02G17970-cb001 readoutvalue=3.29
compound=FC(F)(F)c1ccc(Nc2nc3ccc(Oc4ccnc(-c5ncc(C(F)(F)F)[nH]5)c4)cc3[nH]2)cc1 experimentalsystem=LOC_OS02G17970-cb001 readoutvalue=2.16
compound=CNC(=O)c1ccccc1Nc1nc(Nc2ccc(N3CCOCC3)cc2OC)ncc1Cl experimentalsystem=LOC_OS02G17970-cb001 readoutvalue=1.35
compound=CCN1C(=O)CNc2ncc(-c3ccc(-c4nc[nH]n4)nc3C)nc21 experimentalsystem=LOC_OS02G17970-cb001 readoutvalue=0.77
compound=COc1cc(N2CCC(N)CC2)ccc1Nc1ncc(Cl)c(-c2c[nH]c3ccccc23)n1 experimentalsystem=LOC_OS02G17970-cb001 readoutvalue=1.36
compound=CC(C)(CCCCCC(O)CCCCCC(C)(C)C(=O)O)C(=O)O experimentalsystem=LOC_OS02G17970-cb001 readoutvalue=0.59
compound=Cc1cn(-c2cc(NC(=O)c3ccc(C)c(Nc4nccc(-c5cccnc5)n4)c3)cc(C(F)(F)F)c2)cn1 experimentalsystem=LOC_OS02G17970-cb001 readoutvalue=0.01
compound="COc1nccc(-c2c(-c3ccc(F)cc3)ncn2C2CCC(O)CC2)n1 (centres undefined)" experimentalsystem=LOC_OS02G17970-cb001 readoutvalue=0.65
compound=Cc1ccccc1-n1c(Cn2nc(-c3cccc(O)c3)c3c(N)ncnc32)nc2cccc(C)c2c1=O experimentalsystem=LOC_OS02G17970-cb001 readoutvalue=-0.12
compound=CC(C)NC[C@@H](C(=O)N1CCN(c2ncnc3c2[C@H](C)C[C@H]3O)CC1)c1ccc(Cl)cc1 experimentalsystem=LOC_OS02G17970-cb001 readoutvalue=0.06
